This section presents compounds with their documented pIC50 values.
tested-on: human synovial collagenase (Homo sapiens)
Construct: endogenous in cells; procollagenase partially purified from the culture medium
Sequence (P03956 100-469): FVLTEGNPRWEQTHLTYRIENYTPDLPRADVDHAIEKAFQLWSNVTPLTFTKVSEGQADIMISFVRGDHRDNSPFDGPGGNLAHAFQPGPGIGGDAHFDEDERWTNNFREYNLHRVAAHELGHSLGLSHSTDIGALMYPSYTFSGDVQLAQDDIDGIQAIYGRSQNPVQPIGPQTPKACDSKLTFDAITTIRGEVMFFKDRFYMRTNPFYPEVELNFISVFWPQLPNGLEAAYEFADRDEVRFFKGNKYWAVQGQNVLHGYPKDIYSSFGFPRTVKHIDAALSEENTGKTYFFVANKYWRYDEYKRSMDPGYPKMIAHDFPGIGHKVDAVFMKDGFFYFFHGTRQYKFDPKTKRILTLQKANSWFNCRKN
experimental-details: In vitro inhibition of collagenase from human synovial fibroblast culture (synthetic peptide substrate cleavage)
condition: trypsin-activated procollagenase; 0.5 mmol N-acetyl-L-prolyl-L-leucylglycyl-L-leucyl-L-leucylglycyl ester substrate; borate buffer pH 7.5, CaCl2; 37° C., 1 hour; read-out: Inhibitory activity against human synovial collagenase IC50
pIC50 here is simply -log10 of the concentration when that concentration is written in mol/L.

>  <compound>
CCOC(=O)CNC(=O)[C@H](CC(C)C)NC(=O)C(CC(C)C)CN(O)C=O (mixture of isomers) [C]

>  <tested-on>
human synovial collagenase (Homo sapiens)

>  <quantitative-result>
6.52

$$$$
>  <compound>
CCOC(=O)[C@H](C)NC(=O)[C@H](CC(C)C)NC(=O)[C@@H](CC(=O)NO)CC(C)C [B]

>  <tested-on>
human synovial collagenase (Homo sapiens)

>  <quantitative-result>
8.07

$$$$
>  <compound>
CCOC(=O)[C@H](C)NC(=O)[C@H](CCCCNC(=O)CN)NC(=O)[C@@H](CC(=O)NO)CC(C)C [D]

>  <tested-on>
human synovial collagenase (Homo sapiens)

>  <quantitative-result>
7.52

$$$$
>  <compound>
CC(C)C[C@H](CC(=O)NO)C(=O)NC1CCCCCCCCCCNC1=O (stereo partly drawn) [E]

>  <tested-on>
human synovial collagenase (Homo sapiens)

>  <quantitative-result>
7.42

$$$$

Record CCOC(=O)CNC(=O)[C@H](CC(C)C)NC(=O)[C@@H](CC(=O)NO)CC(C)C [A] . Reported pIC50: 7.60

Record CCOC(=O)CNC(=O)[C@H](CC(C)C)NC(=O)[C@H](CC(C)C)[C@H](CCCCN1C(=O)c2ccccc2C1=O)C(=O)NO [F] . Reported pIC50: 7.92

This collection of values is drawn from patent US4996358A.
